The reported measurements were obtained from ChEMBL document CHEMBL5303711.

# measurement description: Cytotoxicity activity against human HepG2 cells assessed by CellTiter-Glo luminescent cell viability assay.
# Format: toxicity, cell-based
# Set-up: assay stage confirmatory assay, source tissue liver
# protocol conditions: HepG2 cells, read-out: IC50 relative
Active and inactive are the calls of the source. The rule behind the calls is not given here.
The compounds listed here are annotated with their CC50.
measurement name: CC50

[
  {
    "smiles text": "CCc1oc2ccccc2c1CN(C)C(=O)C1(C)CCN(C)CC1",
    "observed measurement": "12 µM (active)"
  },
  {
    "smiles text": "COc1ccc(-c2nc(NCCN3CCN(C)CC3)c3ccccc3n2)cc1",
    "observed measurement": "7.9 µM (active)"
  },
  {
    "smiles text": "CCS(=O)(=O)c1ncc(Cl)c(C(=O)Nc2ccc(OC)cc2)n1",
    "observed measurement": "2.6 µM (active)"
  },
  {
    "smiles text": "CCOc1ccc(C(=O)N2CCN(Cc3noc(-c4ccc(F)cc4)n3)CC2)cc1",
    "observed measurement": "4.8 µM (active)"
  },
  {
    "smiles text": "COC(=O)[C@H]1[C@H]2C[C@@H]3c4[nH]c5cc(OC)ccc5c4CCN3C[C@H]2C[C@@H](OC(=O)c2cc(OC)c(OC)c(OC)c2)[C@@H]1OC",
    "observed measurement": "11.8 µM (active)"
  }
]
